tested on: S. aureus; assay: MIC by broth dilution, S. aureus; type: cell-based; conditions: Staphylococcus aureus; Mueller-Hinton broth, overnight 37° C.; Table 1; read-out: MIC (μg/mL) S. aureus
value-kind: MIC

compound	MIC
CCCCCCCCCCOc1ccccc1C(=O)Nc1ccc(C(=O)OCC[N+](C)(CC)CC)cc1.[Br-] [Compound 24]	3 to 30 µg/mL
CCCCCCCOc1ccccc1C(=O)Nc1ccc(C(=O)NCC[N+](C)(CC)CC)cc1.[Br-] [Compound 77]	3 to 30 µg/mL
CCCCCCCCOc1ccc(F)cc1C(=O)Nc1ccc(C(=O)OCC[N+](C)(CC)CC)cc1.[Br-] [Compound 86]	< 3 µg/mL
CCCCCCCCOc1cc(OCCCCCCCC)cc(C(=O)Nc2ccc(C(=O)OCC[N+](C)(CC)CC)cc2)c1.[Br-] [Compound 18]	> 30 µg/mL
CCCCCCOc1cc(F)ccc1C(=O)Nc1ccc(S(=O)(=O)NCC[N+](CC)(CC)CCCCC)cc1.[Br-] [Compound 94]	3 to 30 µg/mL
CCCCCCCOc1ccccc1C(=O)Nc1ccc(S(=O)(=O)NCC[N+](C)(CC)CC)cc1.[Br-] [Compound 79]	3 to 30 µg/mL

What the record says about CCCCCCCCOc1cccc(OCCCCCCCC)c1C(=O)Nc1ccc(C(=O)OCC[N+](C)(CC)CC)cc1.[Br-] [Compound 17] : MIC is 3 to 30 µg/mL

Source of measurements: patent US11952330B2
